B1: MYBL2 (parent)
chain: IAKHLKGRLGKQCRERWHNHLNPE

Variants of: B1
Experiment: protein stability index of a GFP-peptide fusion (GPS, HEK-293T) (PSI 1-6); higher = more stable;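 also: lentivirally expressed fusions sorted by FACS into six bins by GFP to DsRed ratio, PSI derived from sequencing read proportions per bin multiplied by bin number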
Settings: c terminus: a fixed tail appended
ASSAY_ENDPOINT: protein stability index
API doc: respond with a numeric literal and nothing else, no unit.

What value of protein stability index has been recorded for this entry: "I1C" 1.49

What value of protein stability index has been recorded for this entry: "R16D" 2.08

What value of protein stability index has been recorded for this entry: "H4W" 1.76

What value of protein stability index has been recorded for this entry: "I1N" 2.45

What value of protein stability index has been recorded for this entry: "L5R" 2.7

What value of protein stability index has been recorded for this entry: "R16I" 1.54

What value of protein stability index has been recorded for this entry: "N22H" 1.91

What value of protein stability index has been recorded for this entry: "R16M" 2.39

What value of protein stability index has been recorded for this entry: "E15Q" 1.49

What value of protein stability index has been recorded for this entry: "L21I" 2.29

What value of protein stability index has been recorded for this entry: "K3C" 2.25

What value of protein stability index has been recorded for this entry: "E15N" 1.69

What value of protein stability index has been recorded for this entry: "L5W" 1.84

What value of protein stability index has been recorded for this entry: "E15A" 2.17

What value of protein stability index has been recorded for this entry: "N19T" 1.9

What value of protein stability index has been recorded for this entry: "K11L" 2.36

What value of protein stability index has been recorded for this entry: "A2T" 2.37

What value of protein stability index has been recorded for this entry: "K11G" 3.92

What value of protein stability index has been recorded for this entry: "H4G" 2.2

What value of protein stability index has been recorded for this entry: "N19M" 1.63

What value of protein stability index has been recorded for this entry: "H4C" 3.5

What value of protein stability index has been recorded for this entry: "W17K" 2.94
